Test system: C57BL/KsBom-db/db mice
Test: Blood glucose profile of db/db mice during daily treatment (antihyperglycemic activity)
Type: in vivo
Settings: 25 mg/kg, day 2
Experimental: C57BL/KsBom-db/db mice (12-18 weeks old), weighing around 35+g bred in the animal house of CDRI, Lucknow, were used in the present experiments. […] Body weight of each animal was measured daily from day 1 to day 10 of the experiment. […] Blood glucose was measured at −30.0 min and test compounds were administered. The blood glucose was again measured at 0 min just post treatment and at this juncture glucose solution was given at a dose of 3 gm/kg to all the groups including the vehicle treated group. […]
Field: Blood glucose, day 2 post treatment. Provide a value for each of the molecules that follow.
Answers are plain numbers, in mM.

Solved entries (count: 3):
| molecule | Blood glucose, day 2 post treatment [mM] |
| --- | --- |
| CC(C)NCC(O)COc1ccc2c(=O)cc(-c3cc(O)cc(O)c3)oc2c1 (stereo in doubt) [S-002-857 (R)] | 12.3 |
| CC(C)(C)NC[C@@H](O)COc1ccc2c(=O)cc(-c3cc(OCc4ccccc4)cc(OCc4ccccc4)c3)oc2c1 [S-002-853 (R)] | 12.4 |
| CC(C)(C)NC[C@H](O)COc1ccc2c(=O)cc(-c3cc(OCc4ccccc4)cc(OCc4ccccc4)c3)oc2c1 [S-002-853 (S)] | 16.6 |

We now examine a further molecule.
The recorded Blood glucose, day 2 post treatment for CC(C)NC[C@H](O)COc1ccc2c(=O)cc(-c3cc(O)cc(O)c3)oc2c1 [S-002-857 (S)] is 12.3

---

tested on: C57BL/KsBom-db/db mice; test: Oral glucose tolerance test (OGTT) on day 10 in db/db mice; type: in vivo; conditions: 25 mg/kg, OGTT day 10, 120 min, vs sham
readout-name: Blood glucose % change compared to control, 120 min post glucose load (%)
One number for each entry, in %.

| molecule | test-result |
| --- | --- |
| CC(C)NC[C@H](O)COc1ccc2c(=O)cc(-c3cc(O)cc(O)c3)oc2c1 [S-002-857 (S)] | −37.6 |
| CC(C)(C)NC[C@H](O)COc1ccc2c(=O)cc(-c3cc(OCc4ccccc4)cc(OCc4ccccc4)c3)oc2c1 [S-002-853 (S)] | −58.2 |

We now examine a further molecule.
The recorded Blood glucose % change compared to control, 120 min post glucose load for CC(C)NCC(O)COc1ccc2c(=O)cc(-c3cc(O)cc(O)c3)oc2c1 (stereo in doubt) [S-002-857 (R)] is −14.3
